Measured values drawn from ChEMBL document CHEMBL1140004 for this set.

Assay: Bioavailability in rat at 30 mg/kg, po
Assay type: ADME, organism-based
Settings: in vivo
METRIC: bioavailability

Prompt: Item CSC(=S)N1CC(C)(C)CS/C1=N\c1ccccc1C(C)C has what recorded bioavailability?
Response: 18%

====

Target: Cannabinoid receptor 2 (Homo sapiens, UniProt P34972)
Sequence (P34972 whole entry): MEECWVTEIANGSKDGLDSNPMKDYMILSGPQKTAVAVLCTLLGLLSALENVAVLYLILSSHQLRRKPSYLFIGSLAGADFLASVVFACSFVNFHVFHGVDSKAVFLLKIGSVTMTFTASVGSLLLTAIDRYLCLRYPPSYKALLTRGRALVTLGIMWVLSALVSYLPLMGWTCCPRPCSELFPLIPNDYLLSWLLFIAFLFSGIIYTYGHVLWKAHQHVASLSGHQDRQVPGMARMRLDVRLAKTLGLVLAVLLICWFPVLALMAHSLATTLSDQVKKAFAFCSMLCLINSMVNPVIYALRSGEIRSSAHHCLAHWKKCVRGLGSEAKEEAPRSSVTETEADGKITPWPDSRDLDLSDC
Test: Agonist activity at human CB2 in CHO cells assessed as inhibition of cAMP production
METRIC: IC50 (nM)
Report the value in nM with no unit label.

Prompt: Item CSC(=S)N1CC(C)(C)CS/C1=N\c1ccccc1C(C)C has what recorded IC50?
Response: 6.1

Prompt: Item CCOC(=O)N1CC(C)(C)CS/C1=N\c1ccccc1C(C)C has what recorded IC50?
Response: 322
